Data origin, for the record: the supplement of paper PMC11246515

# EXPERIMENTAL_DETAILS: total protein half-life in vivo (active degradation + dilution); higher = more stable protein
# CONDITION_SET: wild type E. coli NCM3722; growth: N-lim chemostat; doubling time 12 h
TEST_READOUT: total protein half-life in vivo
Note to self: number, then unit, no commentary.

Note down total protein half-life in vivo recorded for MIEADRLISAGTTLPEDVADRAIRPKLLEEYVGQPQVRSQMEIFIKAAKLRGDALDHLLIFGPPGLGKTTLANIVANEMGVNLRTTSGPVLEKAGDLAAMLTNLEPHDVLFIDEIHRLSPVVEEVLYPAMEDYQLDIMIGEGPAARSIKIDLPPFTLIGATTRAGSLTSPLRDRFGIVQRLEFYQVPDLQYIVSRSARFMGLEMSDDGALEVARRARGTPRIANRLLRRVRDFAEVKHDGTISADIAAQALDMLNVDAEGFDYMDRKLLLAVIDKFFGGPVGLDNLAAAIGEERETIEDVLEPYLIQQGFLQRTPRGRMATTRAWNHFGITPPEMP [P0A812]
2.46 h
